# Assay text: 75Q-TubH aggregate inhibition, S. cerevisiae, yeast (AID 1616)
# Run conditions: S. cerevisiae 75Q-TubH polyglutamine aggregation suppression; stronger effect = higher value
Observation type: aggregation suppression score
Answers are plain numbers.

// input: 3 compounds below; output: aggregation suppression score for each
1. CC(=O)Oc1ccc(C(c2ccc(OC(C)=O)cc2)c2ccccn2)cc1
2. NC(=O)NO
3. NS(=O)(=O)c1cc2c(cc1Cl)NC(C1CC3C=CC1C3)NS2(=O)=O (configuration not stated)

Result string:
1: 1.23; 2: 1.3; 3: 0.424

====

# Assay text: NPC library primary testing for decreased DLD-1 cell viability via CellTiter-Glo (AID 1117346)
# Run conditions: DLD-1 viability, CellTiter-Glo luminescence; at 20 µM (top of the series)
Observation type: viability decrease (inhibition) (%)
Answers are plain numbers, in %.

Example results:
Compound: CCOC(=O)[C@H](CCc1ccccc1)N[C@@H](C)C(=O)N1[C@H](C(=O)O)C[C@@H]2CCC[C@@H]21
viability decrease (inhibition) (%): -0.3
--
Compound: C[C@@H]1CN(CCCn2c3ccccc3c3ccccc32)C[C@H](C)N1
viability decrease (inhibition) (%): 82.7
--
Compound: Oc1c(Cl)cc(Cl)cc1Sc1cc(Cl)cc(Cl)c1O
viability decrease (inhibition) (%): 102
--
Compound: CC(N)CCCC(C)(C)O (stereo unspecified)
viability decrease (inhibition) (%): -0.1
--
Compound: CC1CCC(NC(=O)N(CCCl)N=O)CC1 (stereo unspecified)
viability decrease (inhibition) (%): -14.1
--
Compound: NC(Cc1ccc(Cl)cc1)C(=O)O (stereo unspecified)
viability decrease (inhibition) (%): -6.55
--
Compound: COc1cc2c(N3CCN(C(=O)Nc4ccc(OC(C)C)cc4)CC3)ncnc2cc1OCCCN1CCCCC1
viability decrease (inhibition) (%): 10.1
--
Compound: CC1(C)O[C@H]2CC(=O)OC[C@]23[C@H]2CC[C@@]4(C)[C@H](c5ccoc5)OC(=O)[C@H]5O[C@]54[C@]2(C)C(=O)C[C@@H]13
viability decrease (inhibition) (%): -9.6

// input: 3 compounds below; output: viability decrease (inhibition) for each
1. Cc1cccc(C)c1OCC(C)N (stereo unspecified)
2. O=c1ccc2ccccc2o1
3. Nc1ccc(S(N)(=O)=O)cc1

Result string:
1. 4.3
2. 6
3. 25.1

====

# Assay text: compounds altering viability of human ES cells (AID 493140);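 note: cells exposed to compounds for four days before counting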
# Run conditions: human embryonic stem cell survival screen; stronger effect = higher value
Observation type: survival
Answers are plain numbers.

Example results:
Molecule: COc1cc(N)c(Cl)cc1C(=O)NC1CCN(Cc2ccccc2)CC1
survival: 5.67

Molecule: CCc1oc2ccccc2c1C(=O)c1cc(Br)c(O)c(Br)c1
survival: 13.1

Molecule: C#CCN(C)Cc1ccccc1
survival: 31.2

Molecule: COc1ccc2cc3[n+](cc2c1OC)CCc1cc2c(cc1-3)OCO2
survival: 0.5

Molecule: Cc1ccc(C(=O)c2ccc(CC(=O)O)n2C)cc1
survival: 3.83

Molecule: C[C@]12CC[C@@H]3c4ccc(O)cc4CC[C@H]3[C@@H]1C[C@@H](O)[C@@H]2O
survival: 7.75

Molecule: CC(C)NNC(=O)c1ccncc1
survival: 24.2

Molecule: C[n+]1ccccc1/C=N/O
survival: 5.75

// input: 5 molecules below; output: survival for each
1. CN1CCC[C@@H]1CCO[C@](C)(c1ccccc1)c1ccc(Cl)cc1
2. NC(N)=NCCN1CCCCCCC1
3. O=C(O)/C=C/c1ccc(Cn2ccnc2)cc1
4. CC1CC(OC(=O)C(O)c2ccccc2)CC(C)(C)N1C (stereo not drawn)
5. CN1CCN(C2=Nc3ccccc3Oc3ccc(Cl)cc32)CC1

Result string:
6.33
13.9
12.1
2.33
12
